system: OVCAR4; assay: Euclidean distance of Cell Painting phenotypic profile (signed KS, 77 features) to DMSO centroid (dimensionless distance); 5 or 10 uM (library dependent); higher = stronger phenotypic change vs DMSO (phenoactivity); settings: 48 h
Counter-ions that a name gives are not always drawn.

- MOLECULE: "COc1c(O)cc2c(c1O)[C@@H]1O[C@H](CO)[C@@H](O)[C@H](O)[C@H]1OC2=O [Bergenin]"
  Euclidean distance: 2.16
- MOLECULE: "CCN(CC)CCNC(=O)c1cc(S(C)(=O)=O)ccc1OC [Tiapride Hydrochloride]"
  Euclidean distance: 0.874
- MOLECULE: "COc1cc(Nc2ncc3c(n2)-c2ccc(Cl)cc2C(c2c(F)cccc2OC)=NC3)ccc1C(=O)O [Alisertib (MLN8237)]"
  Euclidean distance: 2.8
- MOLECULE: "CCC(c1ccccc1)c1c(O)c2ccccc2oc1=O (centres undefined) [Phenprocoumon]"
  Euclidean distance: 0.957
- MOLECULE: "CN1CCN(c2nc(C3=C(c4c[nH]c5ccccc45)C(=O)NC3=O)c3ccccc3n2)CC1 [Sotrastaurin]"
  Euclidean distance: 1.2
- MOLECULE: "CC[C@H](CO)Nc1nc(NCc2ccccc2)c2ncn(C(C)C)c2n1 [Roscovitine (Seliciclib.CYC202)]"
  Euclidean distance: 1.84
- MOLECULE: "Nc1nc2cc(-c3ccc4ncc(C(=O)N5CCOCC5)n4c3)ccc2o1 [Serabelisib (INK-1117.MLN-1117.TAK-117)]"
  Euclidean distance: 1.61
- MOLECULE: "C[C@@H](N)[C@H]1CC[C@H](C(=O)Nc2ccncc2)CC1"
  Euclidean distance: 3.15
- MOLECULE: "CO/N=C(\\C(=O)N[C@@H]1C(=O)N2C(C(=O)OC(C)OC(C)=O)=C(COC(N)=O)CS[C@H]12)c1ccco1 (some centres undefined) [Cefuroxime axetil]"
  Euclidean distance: 1.41
- MOLECULE: "C[C@@H]1C[C@H]2[C@@H]3C[C@H](F)C4=CC(=O)C=C[C@]4(C)[C@@]3(F)[C@@H](O)C[C@]2(C)[C@@]1(O)C(=O)CO [Flumethasone]"
  Euclidean distance: 1.97
- MOLECULE: "CN[C@H](CC(C)C)C(=O)N[C@H]1C(=O)N[C@@H](CC(N)=O)C(=O)N[C@H]2C(=O)N[C@H]3C(=O)N[C@H](C(=O)N[C@H](C(=O)O)c4cc(O)cc(O)c4-c4cc3ccc4O)[C@H](O)c3ccc(c(Cl)c3)Oc3cc2cc(c3O[C@@H]2O[C@H](CO)[C@@H](O)[C@H](O)[C@H]2O[C@H]2C[C@](C)(N)[C@H](O)[C@H](C)O2)Oc2ccc(cc2Cl)[C@H]1O [Vancomycin HCl]"
  Euclidean distance: 0.795
- MOLECULE: "Oc1cc(O)cc(/C=C/c2ccc(O)c(O)c2)c1 [Piceatannol]"
  Euclidean distance: 0.83
- MOLECULE: "CC1(C)OCCn2c1nc1c(N3CCOCC3)nc(-c3cnc(N)nc3)nc12"
  Euclidean distance: 2.93
- MOLECULE: "O=C1OC(c2ccc(O)cc2)(c2ccc(O)cc2)c2ccccc21 [Phenolphthalein]"
  Euclidean distance: 1.49

###

# Euclidean distance annotations
tested on: A549; test: Euclidean distance of Cell Painting phenotypic profile (signed KS, 77 features) to DMSO centroid (dimensionless distance); 5 or 10 uM (library dependent); higher = stronger phenotypic change vs DMSO (phenoactivity); details: 48 h
Counter-ions that a name gives are not always drawn.

- COMPOUND: "Cc1nnc(SCC2=C(C(=O)O)N3C(=O)[C@@H](NC(=O)Cn4cnnn4)[C@H]3SC2)s1 [Cefazolin]"
  Euclidean distance: 0.455
- COMPOUND: "COc1cc2c(Oc3ccc(NC(=O)C4(C(=O)Nc5ccc(F)cc5)CC4)cc3F)ccnc2cc1OCCCN1CCOCC1"
  Euclidean distance: 2.06
- COMPOUND: "COc1cnc(-n2cnc(C)n2)c2[nH]cc(C(=O)C(=O)N3CCN(C(=O)c4ccccc4)CC3)c12"
  Euclidean distance: 0.841
- COMPOUND: "CCC(C)(Oc1ccc(C2(c3ccc(OC(C)(CC)C(=O)O)cc3)CCCCC2)cc1)C(=O)O (stereo not drawn) [Clinofibrate]"
  Euclidean distance: 0.971
- COMPOUND: "CN[C@H]1C(=O)N[C@@H]2Cc3ccc(cc3)Oc3cc4cc(c3O[C@@H]3O[C@H](C(=O)O)[C@@H](O)[C@H](O)[C@H]3NC(=O)CCCCCCCCC(C)C)Oc3ccc(cc3Cl)[C@@H](O)[C@@H]3NC(=O)[C@H](NC(=O)[C@@H]4NC(=O)[C@@H](NC2=O)c2cc(cc(O)c2Cl)Oc2cc1ccc2O)c1ccc(O)c(c1)-c1c(O[C@H]2O[C@H](CO)[C@@H](O)[C@H](O)[C@@H]2O)cc(O)cc1[C@@H](C(=O)NCCCN(C)C)NC3=O"
  Euclidean distance: 0.819
- COMPOUND: "CCS(=O)(=O)N1CC(CC#N)(n2cc(-c3ncnc4[nH]ccc34)cn2)C1 [Baricitinib phosphate]"
  Euclidean distance: 0.985
- COMPOUND: "N=C(N)NC(=N)NCCc1ccccc1 [Phenformin HCl]"
  Euclidean distance: 1.71
- COMPOUND: "COc1cc2c(Oc3ccc4[nH]c(C)cc4c3F)ncnc2cc1OCCCN1CCCC1 [Cediranib (AZD2171)]"
  Euclidean distance: 4.27
- COMPOUND: "CC(C)OC(=O)[C@H](C)N[P@](=O)(OC[C@H]1O[C@@H](n2ccc(=O)[nH]c2=O)[C@](C)(F)[C@@H]1O)Oc1ccccc1"
  Euclidean distance: 0.693
- COMPOUND: "CC(C)(F)C[C@H](N[C@@H](c1ccc(-c2ccc(S(C)(=O)=O)cc2)cc1)C(F)(F)F)C(=O)NC1(C#N)CC1"
  Euclidean distance: 2.1
- COMPOUND: "CC(C)CCCC(C)N (stereo not drawn)"
  Euclidean distance: 0.649
- COMPOUND: "COc1ccc(CCC(=O)Nc2nc3ccc(Cl)cc3s2)cc1OC"
  Euclidean distance: 1.76
- COMPOUND: "CC/C=C\\C/C=C\\C/C=C\\C/C=C\\C/C=C\\C/C=C\\CCC(=O)O"
  Euclidean distance: 0.581

Sourced from the supplement of paper PMC10127200
